// provenance: patent US20250353873A1

- System: human APOE RNA
- experimental details: Dose-dependent inhibition of human APOE RNA in HepG2 cells, electroporation, 50,000 cells per well, RT-PCR normalized to GAPDH (Example 4, Tables 8-10)
- Type: cell-based
- run conditions: 20,000 nM; HepG2, electroporation, 16-hour treatment
Strand notation (5' to 3'): a small letter for the sugar, then the base; units joined by * are phosphorothioate-linked, units joined directly phosphodiester-linked; [ ] holds rarer units or linkages, { } end groups; capitals alone tell only the bases. [ms] = mesyl phosphoramidate linkage; e = 2'-O-(2-methoxyethyl) (MOE); k = constrained ethyl (cEt); [5mC] = 5-methylcytosine; d = 2'-deoxy (DNA)

- substance: "1766537 (eT*eTeGeGeT*dG[ms]dA[ms]dA[ms]dT*d[5mC]*dT*dT*dT[ms]dA*dT*kTkAeA*eA*e[5mC]; antisense) [Compound 1766537]"
  APOE RNA (% UTC): 5
- substance: "1757581 (eT*eTeGeGkT*dG*dA*dA*dT*d[5mC]*dT*dT*dT*dA*dT*eTeAeA*eA*e[5mC]; antisense) [Compound 1757581]"
  APOE RNA (% UTC): 8
- substance: "1757566 (eA*e[5mC]eTkTkG*dG*dT*dG*dA*dA*dT*d[5mC]*dT*dT*dT*eAeTeT*eA*eA; antisense) [Compound 1757566]"
  APOE RNA (% UTC): 21

* * *

- Tested on: human APOE RNA
- experimental details: Activity in APOE C57BL/6NTac-Apoeem7250 knock-in mice, single ICV bolus, 8 weeks (Example 11)
- Assay type: in vivo
- run conditions: cortex; single ICV bolus 300 μg; 8 weeks post treatment; normalized to mouse Ppia
Strand notation (5' to 3'): a small letter for the sugar, then the base; units joined by * are phosphorothioate-linked, units joined directly phosphodiester-linked; [ ] holds rarer units or linkages, { } end groups; capitals alone tell only the bases. [ms] = mesyl phosphoramidate linkage; e = 2'-O-(2-methoxyethyl) (MOE); k = constrained ethyl (cEt); [5mC] = 5-methylcytosine; d = 2'-deoxy (DNA)
readout name: APOE RNA (% control) Cortex

- substance: "1809636 (kA*e[5mC]eTeT*eG*kG*dT*dG[ms]dA[ms]dA[ms]dT*d[5mC]*dT*dT*dT*dA[ms]kT*kT*eA*kA; antisense) [Compound 1809636]"
  value measured: 16
- substance: "1778115: modified oligonucleotide complementary to human APOE RNA (eA*e[5mC]eTeTkGkG*dT*dG[ms]dA[ms]dA*dT*d[5mC]*dT*dT*dT*dA[ms]eTeT*eA*eA; antisense) [compound 1778115]"
  value measured: 46
- substance: "1652898: 6-10-4 MOE gapmer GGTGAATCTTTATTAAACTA, linkages sooooossssssssssoss (antisense eG*eGeTeGeAeAdT*d[5mC]*dT*dT*dT*dA*dT*dT*dA*dA*eAe[5mC]*eT*eA) [compound 1652898]"
  value measured: 56
- substance: "1652905: 6-10-4 MOE gapmer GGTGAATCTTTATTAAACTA, linkages sooossssssssssssoss (antisense eG*eGeTeGeA*eA*dT*d[5mC]*dT*dT*dT*dA*dT*dT*dA*dA*eAe[5mC]*eT*eA) [compound 1652905]"
  value measured: 44
- substance: "1652903: 6-10-4 MOE gapmer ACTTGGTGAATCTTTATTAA, linkages sooooossssssssssoss (antisense eA*e[5mC]eTeTeGeGdT*dG*dA*dA*dT*d[5mC]*dT*dT*dT*dA*eTeT*eA*eA) [compound 1652903]"
  value measured: 49
- substance: "1652919: 6-10-4 MOE gapmer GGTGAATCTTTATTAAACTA, linkages soooooszzzssssssoss (antisense eG*eGeTeGeAeAdT*d[5mC][ms]dT[ms]dT[ms]dT*dA*dT*dT*dA*dA*eAe[5mC]*eT*eA) [compound 1652919]"
  value measured: 90
- substance: "1778123: modified oligonucleotide complementary to human APOE RNA (eA*e[5mC]eTeTeG*eG*dT*dG[ms]dA[ms]dA*dT*d[5mC]*dT*dT*dT*dA[ms]kTkT*eA*eA; antisense) [compound 1778123]"
  value measured: 49
- substance: "1693144: 6-10-4 MOE gapmer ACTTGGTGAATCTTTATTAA, linkages soosssszzzssssszsss (eA*e[5mC]eTeT*eG*eG*dT*dG[ms]dA[ms]dA[ms]dT*d[5mC]*dT*dT*dT*dA[ms]eT*eT*eA*eA) [compound 1693144]"
  value measured: 67
- substance: "1746799 (k[5mC]*dT[ms]kT*dG[ms]kG*dT[ms]dG[ms]dA[ms]dA[ms]dT*d[5mC]*dT*dT*dT*dA[ms]dT*kT*dA[ms]kA*kA; antisense) [Compound 1746799]"
  value measured: 45
